The entries below are paired with their reported IC50.
biological target: DNMT3B (Homo sapiens (Human)); experiment: DNMT3B breaklight assay; format: biochemical; conditions: read-out: DNMT3B Breaklight IC50
Counter-ions that a name gives are not always drawn.
Parameter Measured: IC50

- Compound: "CCc1c(C#N)c(S[C@@H](C(N)=O)c2ccccc2)nc(N(C)C)c1C#N"
  Tested System: "DNMT3B (Homo sapiens (Human))"
  Result: "> 500 µM"
- Compound: "CN1CCN(CC2CCN(c3nc(SC(C(N)=O)c4ccccc4)c(C#N)c(C4CC4)c3C#N)CC2)CC1 (stereo not drawn) [Example 125, trifluoroacetate]"
  Tested System: "DNMT3B (Homo sapiens (Human))"
  Result: "75 µM"
- Compound: "CCc1c(C#N)c(SCc2ccc(CC(=O)NC)cc2)nc(N2CCCN(C)CC2)c1C#N"
  Tested System: "DNMT3B (Homo sapiens (Human))"
  Result: "> 250 µM"
- Compound: "CCc1c(C#N)c(SCc2ccc(CNC(C)=O)cc2)nc(N2CCCN(C)CC2)c1C#N"
  Tested System: "DNMT3B (Homo sapiens (Human))"
  Result: "> 250 µM"
- Compound: "CC(Sc1nc(N2CCCNCC2)c(C#N)c(C2CC2)c1C#N)C(N)=O (stereo not drawn)"
  Tested System: "DNMT3B (Homo sapiens (Human))"
  Result: "> 500 µM"
- Compound: "CCc1c(C#N)c(SCc2ccc(CNC(=O)CO)cc2)nc(N2CCCN(C)CC2)c1C#N"
  Tested System: "DNMT3B (Homo sapiens (Human))"
  Result: "> 250 µM"

* * *

target: DNMT1 (Homo sapiens); experiment: DNMT1 biochemical activity, breaklight assay and/or SPA assay; conditions: binned activity in either the breaklight or the SPA assay; read-out: DNMT1 BioChemical (pIC50 category) (converted)
Sequence (P26358 whole entry, looked up): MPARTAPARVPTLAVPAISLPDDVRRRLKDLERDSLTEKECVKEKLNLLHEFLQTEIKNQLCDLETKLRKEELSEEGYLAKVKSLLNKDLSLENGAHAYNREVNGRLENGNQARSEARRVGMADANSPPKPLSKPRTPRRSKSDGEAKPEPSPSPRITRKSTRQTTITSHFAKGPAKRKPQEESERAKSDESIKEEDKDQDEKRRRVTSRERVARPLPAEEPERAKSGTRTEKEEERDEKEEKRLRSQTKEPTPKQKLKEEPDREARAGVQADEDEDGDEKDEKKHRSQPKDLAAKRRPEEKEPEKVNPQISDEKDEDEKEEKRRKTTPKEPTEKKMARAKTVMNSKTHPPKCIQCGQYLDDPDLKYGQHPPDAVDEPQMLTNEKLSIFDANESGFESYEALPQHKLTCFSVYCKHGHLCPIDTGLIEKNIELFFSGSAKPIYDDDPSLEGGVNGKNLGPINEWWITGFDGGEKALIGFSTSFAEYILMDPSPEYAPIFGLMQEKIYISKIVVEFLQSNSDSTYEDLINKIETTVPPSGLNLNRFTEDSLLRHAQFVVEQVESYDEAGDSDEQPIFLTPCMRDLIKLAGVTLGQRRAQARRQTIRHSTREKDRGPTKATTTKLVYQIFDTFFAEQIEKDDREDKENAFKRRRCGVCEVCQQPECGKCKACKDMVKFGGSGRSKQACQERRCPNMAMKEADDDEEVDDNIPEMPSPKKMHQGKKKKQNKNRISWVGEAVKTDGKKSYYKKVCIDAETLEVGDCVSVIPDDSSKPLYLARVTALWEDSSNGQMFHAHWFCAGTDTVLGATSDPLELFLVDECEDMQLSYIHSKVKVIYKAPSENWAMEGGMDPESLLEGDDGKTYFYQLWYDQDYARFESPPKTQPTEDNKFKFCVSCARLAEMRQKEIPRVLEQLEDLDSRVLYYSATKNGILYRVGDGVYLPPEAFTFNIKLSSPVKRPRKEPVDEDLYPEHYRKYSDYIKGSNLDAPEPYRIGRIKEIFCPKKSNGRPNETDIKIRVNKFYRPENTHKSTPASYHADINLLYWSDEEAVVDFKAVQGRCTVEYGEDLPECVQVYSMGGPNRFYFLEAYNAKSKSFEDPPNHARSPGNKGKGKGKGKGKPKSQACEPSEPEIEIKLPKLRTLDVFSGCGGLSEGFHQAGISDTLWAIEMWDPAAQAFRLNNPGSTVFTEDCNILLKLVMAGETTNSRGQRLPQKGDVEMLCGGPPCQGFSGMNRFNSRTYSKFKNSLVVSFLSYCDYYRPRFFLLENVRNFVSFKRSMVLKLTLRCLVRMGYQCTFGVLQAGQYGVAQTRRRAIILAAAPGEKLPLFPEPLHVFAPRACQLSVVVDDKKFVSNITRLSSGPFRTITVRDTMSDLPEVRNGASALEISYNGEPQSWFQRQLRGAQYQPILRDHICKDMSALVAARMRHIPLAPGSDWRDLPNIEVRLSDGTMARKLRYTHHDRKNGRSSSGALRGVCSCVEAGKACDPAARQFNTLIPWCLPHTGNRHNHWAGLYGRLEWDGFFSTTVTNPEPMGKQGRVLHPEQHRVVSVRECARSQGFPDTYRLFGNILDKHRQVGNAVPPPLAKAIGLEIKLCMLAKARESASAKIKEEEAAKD
IC50 reference

- Compound: "CCc1c(C#N)c(S[C@H](C(N)=O)c2ccccc2)nc(N2CC[C@H](N)[C@H](F)C2)c1C#N [Example 540, 2,2,2-trifluoroacetate]"
  IC50: "1 to 31.6 µM"
- Compound: "CCc1c(C#N)c(N)nc(S[C@@H](C(N)=O)c2ccccc2)c1C#N"
  IC50: "0.316 to 1 µM"
- Compound: "CCc1c(C#N)c(SC(C(N)=O)c2ccc(OC)cn2)nc(N(C)C)c1C#N (centres unmarked)"
  IC50: "0.316 to 1 µM"
- Compound: "CCc1c(C#N)c(SC(C(N)=O)c2ccc(C(F)(F)F)cc2)nc(N2CCCN(C)CC2)c1C#N (centres unmarked)"
  IC50: "0.316 to 1 µM"
- Compound: "CCc1c(C#N)c(SC(C(N)=O)c2ccnc(F)c2)nc(N2CCCN(C)CC2)c1C#N (centres unmarked)"
  IC50: "1 to 31.6 µM"
- Compound: "CCc1c(C#N)c(SC(C(N)=O)c2ccccc2)nc(N2CCN(Cc3ccoc3)CC2)c1C#N (centres unmarked)"
  IC50: "0.316 to 1 µM"
- Compound: "CCc1c(C#N)c(SCc2ccc(COC(C)=O)cc2)nc(N2CCCN(C)CC2)c1C#N"
  IC50: "0.316 to 1 µM"
- Compound: "CCc1c(C#N)c(SCc2ccc(CNC(=O)CNC(=O)OC(C)(C)C)cc2)nc(N2CCCN(C)CC2)c1C#N"
  IC50: "0.316 to 1 µM"
- Compound: "CCc1c(C#N)c(SCc2ccc(N)nc2)nc(N2CCCN(C)CC2)c1C#N"
  IC50: "0.316 to 1 µM"
- Compound: "CCc1c(C#N)c(SC(C(N)=O)c2ccccc2)nc(N2CCC(OCCO)CC2)c1C#N (centres unmarked)"
  IC50: "0.316 to 1 µM"
- Compound: "CCc1c(C#N)c(S[C@@H](C(N)=O)c2ccccc2)nc(N2CC[C@H](OP(=O)(O)O)C2)c1C#N"
  IC50: "1 to 31.6 µM"
- Compound: "N#Cc1c(SC(C(N)=O)c2ccccc2)nc(N2CCN(CCCN)CC2)c(C#N)c1C1CC1 (centres unmarked)"
  IC50: "0.316 to 1 µM"
- Compound: "CCc1c(C#N)c(SC(C(N)=O)c2ccc(OC)cn2)nc(N2CCCN(C)CC2)c1C#N (centres unmarked)"
  IC50: "0.316 to 1 µM"
- Compound: "CN1CCN(c2nc(SC(C(N)=O)c3ccccc3)c(C#N)c(C3CC3)c2C#N)CCC1=O (centres unmarked)"
  IC50: "0.316 to 1 µM"
- Compound: "CCc1nc(SC(C(N)=O)c2ccccc2)c(C#N)c(CC)c1C#N (centres unmarked)"
  IC50: "0.316 to 1 µM"
- Compound: "CCc1c(C#N)c(SC(C(N)=O)c2cccnc2)nc(N2CC[C@H](O)C2)c1C#N (some centres unmarked)"
  IC50: "0.316 to 1 µM"
- Compound: "CCc1c(C#N)c(SC(C(N)=O)c2ccccc2)nc(N2CCC(OCCOP(=O)(O)O)CC2)c1C#N (centres unmarked)"
  IC50: "1 to 31.6 µM"
- Compound: "N#Cc1c(SC(C(N)=O)c2ccccc2)nc(N2CCC[C@H](O)C2)c(C#N)c1C1CC1 (some centres unmarked)"
  IC50: "0.316 to 1 µM"
- Compound: "CCc1c(C#N)c(SC(C(N)=O)c2cccc(C(=O)c3ccccc3)c2)nc(N2CCCN(CCO)CC2)c1C#N (centres unmarked)"
  IC50: "0.316 to 1 µM"
- Compound: "CCc1c(C#N)c(SC(C(N)=O)c2ccccc2)nc(N2CCN(Cc3cnc[nH]3)CC2)c1C#N (centres unmarked)"
  IC50: "0.316 to 1 µM"
- Compound: "CCc1c(C#N)c(SC(C(N)=O)c2cncc(C)c2)nc(N2CCCN(C)CC2)c1C#N (centres unmarked)"
  IC50: "1 to 31.6 µM"
- Compound: "CCc1c(C#N)c(SC(C(N)=O)c2ccccc2)nc(N2CC[C@@H](N)[C@@H](F)C2)c1C#N (relative stereo)"
  IC50: "< 0.316 µM"
- Compound: "N#Cc1c(SC(C(N)=O)c2ccccc2)nc(N2CCCC(O)C2)c(C#N)c1C1CC1 (centres unmarked)"
  IC50: "0.316 to 1 µM"
- Compound: "CCc1c(C#N)c(SCc2ccc(N)cc2)nc(N2CCCN(C)CC2)c1C#N"
  IC50: "0.316 to 1 µM"
- Compound: "CCc1c(C#N)c(SC(C(N)=O)c2ccccc2)nc(N2CCC(NC(=O)OC(C)(C)C)CC2)c1C#N (centres unmarked)"
  IC50: "1 to 31.6 µM"
- Compound: "CCc1c(C#N)c(SC(C(N)=O)c2ccc(F)c(F)c2)nc(N2CCC(N(C)C)CC2)c1C#N (centres unmarked)"
  IC50: "1 to 31.6 µM"
